Here the recorded inhibition at 1 µM is given for each entry.
- EXPERIMENTAL_SYSTEM: panel of 255 wild-type kinases (Homo sapiens)
- MEASUREMENT_DESCRIPTION: Kinase panel profiling at 1 µmol/L (MSA or IMAP), percentage inhibition
- Format: biochemical
- CONDITION_INFO: kinase PDGFRβ; 1 µmol/L single concentration; read-out: %-inhibition at 1 µmol/L, PDGFRβ
READOUT_KIND: inhibition at 1 µM (%)

INSERT INTO measurements (mol_smiles, readout_kind, endpoint_result) VALUES
  ('CCc1nc(C(N)=O)c(Nc2ccc(N3CCC(N4CCN(C)CC4)CC3)c(OC)c2)nc1NC1CCOCC1', 'inhibition at 1 µM', 105),
  ('O=C(Nc1cnn2ccc(N3CCC[C@@H]3c3cc(F)ccc3F)nc12)N1CC[C@H](O)C1', 'inhibition at 1 µM', -0.157),
  ('COc1ccc(CN2C3CC2CN(c2ccc(-c4cc(OCC(C)(C)O)cn5ncc(C#N)c45)cn2)C3)cn1', 'inhibition at 1 µM', 94),
  ('Cn1cnc2c(F)c(Nc3ccc(Br)cc3F)c(C(=O)NOCCO)cc21', 'inhibition at 1 µM', -2.23),
  ('CCN1C(=O)N(c2c(F)c(OC)cc(OC)c2F)Cc2cnc3[nH]c(CN4CCOCC4)cc3c21', 'inhibition at 1 µM', 73);

---

- EXPERIMENTAL_SYSTEM: UniProtKB Q13043
- Sequence (Q13043 whole entry): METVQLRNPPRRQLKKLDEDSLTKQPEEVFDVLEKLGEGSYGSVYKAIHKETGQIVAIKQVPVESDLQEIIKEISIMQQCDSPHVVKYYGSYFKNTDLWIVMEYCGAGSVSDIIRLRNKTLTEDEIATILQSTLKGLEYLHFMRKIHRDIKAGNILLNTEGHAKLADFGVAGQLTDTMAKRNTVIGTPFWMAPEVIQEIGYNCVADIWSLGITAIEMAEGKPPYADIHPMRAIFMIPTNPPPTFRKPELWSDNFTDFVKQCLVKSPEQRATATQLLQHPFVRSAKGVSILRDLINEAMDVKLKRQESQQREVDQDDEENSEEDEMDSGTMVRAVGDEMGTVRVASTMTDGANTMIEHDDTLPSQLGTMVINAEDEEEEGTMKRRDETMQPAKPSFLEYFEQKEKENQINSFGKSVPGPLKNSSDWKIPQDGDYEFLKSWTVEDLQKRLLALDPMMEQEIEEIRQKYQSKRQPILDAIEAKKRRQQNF
- MEASUREMENT_DESCRIPTION: Kinase panel profiling at 1 µmol/L (MSA or IMAP), percentage inhibition
- Assay type: biochemical
- CONDITION_INFO: MST1; 1 µmol/L single concentration; read-out: %-inhibition, MST1
READOUT_KIND: inhibition at 1 µM (%)

INSERT INTO measurements (compound, experimental_system, endpoint_result) VALUES
  ('Cn1cc(-c2cc3c(N4CCN(c5ncc([C@@](C)(N)c6ccc(F)cc6)cn5)CC4)ncnn3c2)cn1 [avapritinib]', 'UniProtKB Q13043', 5.32),
  ('Cc1nc(NC(=O)N2CCC[C@H]2C(N)=O)sc1-c1ccnc(C(C)(C)C(F)(F)F)c1 [alpelisib]', 'UniProtKB Q13043', 5),
  ('CCN1C(=O)N(c2c(F)c(OC)cc(OC)c2F)Cc2cnc3[nH]c(CN4CCOCC4)cc3c21 [pemigatinib]', 'UniProtKB Q13043', 6),
  ('COc1ccc(CN2C3CC2CN(c2ccc(-c4cc(OCC(C)(C)O)cn5ncc(C#N)c45)cn2)C3)cn1 [selpercatinib]', 'UniProtKB Q13043', -2.33);

---

- Tested on: 134 cancer cell lines
- MEASUREMENT_DESCRIPTION: Cell viability assay (ATPlite, 72 hours), IC50 on cancer cell line panel
- CONDITION_INFO: Homo sapiens, U-118-MG, read-out: IC50 in cell proliferation assay
READOUT_KIND: IC50

INSERT INTO results (mol_smiles, experimental_system, endpoint_result) VALUES
  ('Cn1cc(-c2cc3c(N4CCN(c5ncc([C@@](C)(N)c6ccc(F)cc6)cn5)CC4)ncnn3c2)cn1', '134 cancer cell lines', '1.1 µM'),
  ('CCn1c(=O)c(-c2cc(NC(=O)Nc3ccccc3)c(F)cc2Br)cc2cnc(NC)cc21', '134 cancer cell lines', '4.22 µM'),
  ('C=CC(=O)N1CCC([C@@H]2CCNc3c(C(N)=O)c(-c4ccc(Oc5ccccc5)cc4)nn32)CC1', '134 cancer cell lines', '> 31.6 µM'),
  ('CNC(=O)c1ccc(-c2cnc3ncc(Cc4ccc5ncccc5c4)n3n2)cc1F', '134 cancer cell lines', '> 31.6 µM');

Hey, just so you know, these numbers are from paper PMC9516332.
